experimental system: BChE from equine serum (Equus caballus)
Construct: C7512‐ BChE from equine serum; purchased Sigma Aldrich C7512; host or cells: equine serum
Sequence (P81908 whole entry): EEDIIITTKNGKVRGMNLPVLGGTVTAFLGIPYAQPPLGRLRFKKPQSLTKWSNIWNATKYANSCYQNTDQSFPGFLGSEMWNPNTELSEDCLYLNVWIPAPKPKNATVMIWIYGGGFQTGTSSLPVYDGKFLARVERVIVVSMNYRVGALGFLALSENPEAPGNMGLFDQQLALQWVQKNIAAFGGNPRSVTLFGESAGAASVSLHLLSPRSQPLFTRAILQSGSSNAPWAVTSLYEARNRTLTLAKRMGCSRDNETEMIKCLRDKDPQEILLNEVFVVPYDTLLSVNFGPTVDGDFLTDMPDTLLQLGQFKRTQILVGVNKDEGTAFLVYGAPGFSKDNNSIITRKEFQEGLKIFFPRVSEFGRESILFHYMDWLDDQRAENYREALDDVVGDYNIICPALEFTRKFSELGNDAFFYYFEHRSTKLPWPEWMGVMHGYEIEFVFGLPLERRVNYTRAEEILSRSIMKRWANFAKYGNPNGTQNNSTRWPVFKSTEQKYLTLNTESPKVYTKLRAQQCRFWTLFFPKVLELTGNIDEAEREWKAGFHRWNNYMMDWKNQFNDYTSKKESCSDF
procedure text: biochemical
assay setup: BChI substrate, DTNB, 412 nm, Tris/HCl pH 8.0
One threshold, 200 nM, splits the recorded IC50 values: lower ones are T, equal or higher ones are F.

Sample answers from the record:
CCN(CC)c1ccc(/C=N/NC(=S)Nc2ccc(OC)cc2)c(OS(=O)(=O)c2ccc3ccccc3c2)c1    F
CCN(CC)c1ccc(/C=N/NC(=S)NC)c(OS(=O)(=O)c2ccc3ccccc3c2)c1    F
CCN(CC)c1ccc(/C=N/NC(=S)Nc2ccccc2)c(OS(=O)(=O)c2ccc3ccccc3c2)c1    F
CCN(CC)c1ccc(/C=N/NC(N)=S)c(OS(=O)(=O)c2ccc3ccccc3c2)c1    F
CCN(CC)c1ccc(/C=N/NC(=S)Nc2ccccc2C)c(OS(=O)(=O)c2ccc3ccccc3c2)c1    F

Next:
Exercise: Threshold test, IC50 < 200 nM: `CCN(CC)c1ccc(/C=N/NC(=S)Nc2cccc(Cl)c2Cl)c(OS(=O)(=O)c2ccc3ccccc3c2)c1`
Key: T

----------
experimental system: hMAO‐A (Homo sapiens)
Construct: purchased Sigma Aldrich M7316
Sequence (P21397 whole entry): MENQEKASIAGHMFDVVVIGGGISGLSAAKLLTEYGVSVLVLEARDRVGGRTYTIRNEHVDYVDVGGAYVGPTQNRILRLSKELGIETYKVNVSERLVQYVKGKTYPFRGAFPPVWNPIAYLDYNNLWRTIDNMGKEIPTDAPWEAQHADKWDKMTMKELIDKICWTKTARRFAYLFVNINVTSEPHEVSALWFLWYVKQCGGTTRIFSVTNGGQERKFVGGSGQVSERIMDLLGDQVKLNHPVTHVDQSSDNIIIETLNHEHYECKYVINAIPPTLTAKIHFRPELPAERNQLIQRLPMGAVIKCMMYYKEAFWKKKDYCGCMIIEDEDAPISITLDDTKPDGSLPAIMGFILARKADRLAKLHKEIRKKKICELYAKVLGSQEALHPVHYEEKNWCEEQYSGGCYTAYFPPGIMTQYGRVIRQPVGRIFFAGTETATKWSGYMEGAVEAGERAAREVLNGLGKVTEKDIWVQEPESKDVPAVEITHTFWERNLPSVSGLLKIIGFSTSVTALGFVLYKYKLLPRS
procedure text: In vitro fluorometric MAO-A inhibition assay (tyramine substrate, horseradish peroxidase coupling)
Format: biochemical
property name: IC50 (nM)
Value expressed in nM; do not type the unit.

CCN(CC)c1ccc(/C=N/NC(N)=S)c(OS(=O)(=O)c2ccc3ccccc3c2)c1    137
CCN(CC)c1ccc(/C=N/NC(=S)Nc2ccc(Cl)cc2)c(OS(=O)(=O)c2ccc3ccccc3c2)c1    121
CCN(CC)c1ccc(/C=N/NC(=S)Nc2ccccc2)c(OS(=O)(=O)c2ccc3ccccc3c2)c1    189

Exercise: Which measured IC50 value corresponds to `CCN(CC)c1ccc(/C=N/NC(=S)Nc2ccccc2C(F)(F)F)c(OS(=O)(=O)c2ccc3ccccc3c2)c1` ?
Key: 100

Exercise: Which measured IC50 value corresponds to `CCN(CC)c1ccc(/C=N/NC(=S)Nc2cccc(Cl)c2Cl)c(OS(=O)(=O)c2ccc3ccccc3c2)c1` ?
Key: 104

Exercise: Which measured IC50 value corresponds to `CCN(CC)c1ccc(/C=N/NC(=S)NCCc2ccccc2)c(OS(=O)(=O)c2ccc3ccccc3c2)c1` ?
Key: 139

Exercise: Which measured IC50 value corresponds to `CCN(CC)c1ccc(/C=N/NC(=S)NCc2ccc(Cl)cc2)c(OS(=O)(=O)c2ccc3ccccc3c2)c1` ?
Key: 119

Exercise: Which measured IC50 value corresponds to `CCN(CC)c1ccc(/C=N/NC(=S)NCC(C)C)c(OS(=O)(=O)c2ccc3ccccc3c2)c1` ?
Key: 134

Exercise: Which measured IC50 value corresponds to `CCN(CC)c1ccc(/C=N/NC(=S)Nc2cccc(OC)c2)c(OS(=O)(=O)c2ccc3ccccc3c2)c1` ?
Key: 145

Exercise: Which measured IC50 value corresponds to `CCN(CC)c1ccc(/C=N/NC(=S)Nc2ccc(OC)cc2)c(OS(=O)(=O)c2ccc3ccccc3c2)c1` ?
Key: 171

Exercise: Which measured IC50 value corresponds to `CCN(CC)c1ccc(/C=N/NC(=S)Nc2c(C)cccc2C)c(OS(=O)(=O)c2ccc3ccccc3c2)c1` ?
Key: 137

Exercise: Which measured IC50 value corresponds to `CCN(CC)c1ccc(C=NNC(=S)NCCCSC)c(OS(=O)(=O)c2ccc3ccccc3c2)c1` ?
Key: 188

Exercise: Which measured IC50 value corresponds to `CCN(CC)c1ccc(/C=N/NC(=S)Nc2cccc([N+](=O)[O-])c2)c(OS(=O)(=O)c2ccc3ccccc3c2)c1` ?
Key: 123

Exercise: Which measured IC50 value corresponds to `CCN(CC)c1ccc(/C=N/NC(=S)Nc2cccc(Cl)c2)c(OS(=O)(=O)c2ccc3ccccc3c2)c1` ?
Key: 117
